# testName: background-corrected fluorescence of 3'-dye-labeled ssDNA relative to brightest sequence (3'-GCGCG) (fraction); higher = brighter dye fluorescence (less quenching)
# conditions: dye: Cy3 (3' terminal)
recordedEndpoint: background-corrected fluorescence
# answer = number (no unit)

Illustrative cases are given below, each with its answer.
[
  {
    "sequence": "TTTTTTCATGAGCATCAGCATTTTTTTTTTTTTTTGCTGT [TGTCG]",
    "background-corrected fluorescence": 0.594
  },
  {
    "sequence": "TTTTTTCATGATGCGCATGATTTTTTTTTTTTTTTGCATC [CTACG]",
    "background-corrected fluorescence": 0.441
  },
  {
    "sequence": "TTTTTGCATCAGCAGCAGCATTTTTTTTTTTTTTTTGTTT",
    "background-corrected fluorescence": 0.511
  },
  {
    "sequence": "TTTTTTCATGCTCATCATCATTTTTTTTTTTTTTTGAGGG [GGGAG]",
    "background-corrected fluorescence": 0.759
  }
]

Please turn your attention to the following entry.
May I ask what background-corrected fluorescence has been recorded for TTTTTGCATGAGCATCATCATTTTTTTTTTTTTTTTCTGG [GGTCT] ?
0.563

* * *

# testName: background-corrected fluorescence of 3'-dye-labeled ssDNA relative to brightest sequence (3'-GCGCG) (fraction); higher = brighter dye fluorescence (less quenching)
# conditions: dye: Cy5 (3' terminal)
In this section we review reported background-corrected fluorescence values for a set of sequences.
# answer = number (no unit)

Illustrative cases are given below, each with its answer.
[
  {
    "sequence": "TTTTTTCAGCATCATGCGCATTTTTTTTTTTTTTTGTGAT [TAGTG]",
    "val": 0.429
  },
  {
    "sequence": "TTTTTGCAGCATGCTGAGCATTTTTTTTTTTTTTTTTACT [TCATT]",
    "val": 0.361
  }
]

May I ask what background-corrected fluorescence has been recorded for TTTTTGCATGATCATGATGATTTTTTTTTTTTTTTTCGCC [CCGCT] ?
0.337

Cool, now TTTTTTCATCATGCTGCTGCTTTTTTTTTTTTTTTGGAAA [AAAGG]
0.534

Cool, now "TTTTTGCATGCTCATGCGCATTTTTTTTTTTTTTTTAGAT"
0.463

Cool, now TTTTTTGCGCATGCTGAGCATTTTTTTTTTTTTTTATACT [TCATA]
0.378

* * *

# testName: background-corrected fluorescence of 3'-dye-labeled ssDNA relative to brightest sequence (3'-GCGCG) (fraction); higher = brighter dye fluorescence (less quenching)
# conditions: dye: Cy3 (3' terminal)
Entries get a class label from measured background-corrected fluorescence. See ranges: group 1 = under 0.5, group 2 = from 0.5 up to 0.6, group 3 = 0.6 and over

Note: place this sequence into its band. Item: TTTTTTGCGCATGATCATGATTTTTTTTTTTTTTTATCGC [CGCTA]
group 2

Cool, now TTTTTTGAGCATCATCATGCTTTTTTTTTTTTTTTCTGGA [AGGTC]
group 3

Cool, now TTTTTTGCTGCGCATCATGATTTTTTTTTTTTTTTAATGC [CGTAA]
group 2

Cool, now TTTTTTGCTGCTCATGATGCTTTTTTTTTTTTTTTAAGCA [ACGAA]
group 2

Cool, now TTTTTTCAGCAGCATGATGATTTTTTTTTTTTTTTGTTCC [CCTTG]
group 1

Cool, now TTTTTGCATCAGCATGATGATTTTTTTTTTTTTTTTGTCC [CCTGT]
group 1

Cool, now TTTTTGCATCAGCAGCATCATTTTTTTTTTTTTTTTGTTG [GTTGT]
group 2

Cool, now TTTTTGCATGATGATGCGCATTTTTTTTTTTTTTTTCCAT [TACCT]
group 1

Cool, now TTTTTTCATGAGCATGATGATTTTTTTTTTTTTTTGCTCC [CCTCG]
group 1

Cool, now TTTTTTCAGCATGCTGATGCTTTTTTTTTTTTTTTGTACA [ACATG]
group 2

Cool, now TTTTTTGATGCTGAGCATGATTTTTTTTTTTTTTTCACTC [CTCAC]
group 1

Cool, now "TTTTTGCATCATCAGCAGCATTTTTTTTTTTTTTTTGGTT"
group 3

Cool, now TTTTTTGATCAGCATGCTGCTTTTTTTTTTTTTTTCGTAA [AATGC]
group 2

Cool, now "TTTTTTCATGCGCATGCTCATTTTTTTTTTTTTTTGATAG"
group 2

Cool, now TTTTTGCATCATGCTGAGCATTTTTTTTTTTTTTTTGACT [TCAGT]
group 1
